# method.notes: growth inhibition of non-replicating M. tuberculosis (AID 488890);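 further: plate controls were DMSO cells for no effect and high antibiotic wells for full effect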
# test.parameters: Mycobacterium tuberculosis non-replicating, at 25 µM, stronger effect = higher value
In all, about 320,000 compounds went through this assay and about 1,300 (0.41%) were called active. Roughly 3% stayed inconclusive and do not appear here. Only a sample is shown. Potency and affinity values are given separately.
parameter: inhibition (%)

compound: Nc1ccc(C(=O)N/N=C2\CCCc3c2[nH]c2ccccc32)cc1
quantity.unit: %
numeric.result: 19.8
//
compound: CCC(=O)N1c2ccc(S(=O)(=O)N3CCN(CC)CC3)cc2CC1C (stereo not given)
quantity.unit: %
numeric.result: -2.95
//
compound: Cc1cc(NC(=O)CO/N=C/c2ccc3c(c2)OCO3)ccc1Br
quantity.unit: %
numeric.result: -0.49
//
compound: CSc1ccccc1NC(=O)c1ccc(N2CCCC2=O)cc1
quantity.unit: %
numeric.result: 7.7
//
compound: Cc1ccc(S(=O)(=O)N2CCC(=O)N(CCOC(=O)NCc3ccccc3)CC2)cc1
quantity.unit: %
numeric.result: 16.1
//
compound: O=C(CC1CCCCC1)NCC1CCCO1 (stereo not given)
quantity.unit: %
numeric.result: 69.3
//
compound: O=C(c1ccccc1)N1N=C(c2ccc(F)cc2)CC1(O)C(F)(F)F (stereo not given)
quantity.unit: %
numeric.result: 67.9
//
compound: CCC(NC(=O)c1cc(COc2cncc(Cl)c2)on1)c1ccncc1 (stereo not given)
quantity.unit: %
numeric.result: 21.9
//
compound: CCOc1ccc(C(=O)NC2CCCCCCC2)cc1
quantity.unit: %
numeric.result: 77.1
//
compound: COc1ccc(OCCNc2cc(N3CCCCC3)ccc2[N+](=O)[O-])cc1
quantity.unit: %
numeric.result: 72.4
//
compound: COC(/C=C/Nc1ccc(C)c(C)c1)=C(C#N)C#N
quantity.unit: %
numeric.result: -13.9
//
compound: Cc1ccc(C(=O)NC2CCCC2)s1
quantity.unit: %
numeric.result: 56.2
//
compound: COc1ccc(CNC(=O)N2CCN(c3cccc(C)c3C)CC2)cc1OC
quantity.unit: %
numeric.result: 47.1
//
compound: CCCCOc1ccc(NC(=O)CSc2nnnn2C)cc1
quantity.unit: %
numeric.result: 18.5
//
compound: Cc1c(Cl)cccc1NC(=O)c1ccc(OCC(=O)NCc2ccccc2)cc1
quantity.unit: %
numeric.result: -7.76
//
compound: CCC(=O)c1ccc(OCC(=O)OCC(=O)NC2CCCCCC2)cc1
quantity.unit: %
numeric.result: 20.5
//
compound: C#CCSc1n[nH]c(=O)n1-c1cccc(C(F)(F)F)c1
quantity.unit: %
numeric.result: 3.27
//
compound: Cc1ccc(SCC(=O)NCC2COc3ccccc3O2)cc1 (stereo not given)
quantity.unit: %
numeric.result: 29.9
//
compound: CCCCc1ccc(-c2nc(-c3ccncc3)no2)cc1
quantity.unit: %
numeric.result: 22.1
//
compound: COc1ccc(/C=N/NC(=O)NC23CC4CC(CC(C4)C2)C3)c(OC)c1
quantity.unit: %
numeric.result: 27.6
//
compound: CCOc1ccc(NC(=O)CCCN2C(=O)C(c3ccccc3)Oc3cccnc32)cc1 (stereo not given)
quantity.unit: %
numeric.result: 3.12
//
compound: COc1ccc(-c2cnn3c4c(c(C)nc23)CCN4C(C)C)cc1OC
quantity.unit: %
numeric.result: 6.73
//
compound: O=c1oc2ccccc2c(Nc2cccc3ccccc23)c1[N+](=O)[O-]
quantity.unit: %
numeric.result: 21.2
//
compound: COC(=O)N/N=C/c1cccc(OCCSc2ccc(Cl)cc2)c1
quantity.unit: %
numeric.result: 74.7
//
compound: O=C(COc1ccccc1F)Nc1ccc2c(c1)OCCO2
quantity.unit: %
numeric.result: 52.5
//
compound: CC1CN(S(=O)(=O)c2cccc(C(=O)OCC(=O)N3CCCCCC3)c2)CC(C)O1 (stereo not given)
quantity.unit: %
numeric.result: -8.29
//
compound: O=C(NN=C1CCCCCC1)c1ccncc1
quantity.unit: %
numeric.result: 70.4
//
compound: CC(OC(=O)c1ccc2c(=O)n3c(nc2c1)CCCCC3)C(=O)Nc1ncc(Cl)cc1Cl (stereo not given)
quantity.unit: %
numeric.result: 29.8
//
compound: CCC(=O)c1ccc(OCC(=O)Nc2ccc3c(c2)OCCO3)cc1
quantity.unit: %
numeric.result: 69.5
//
compound: CC(OC(=O)c1ccc2c(=O)n3c(nc2c1)CCCCC3)C(=O)Nc1ccc(F)cc1Cl (stereo not given)
quantity.unit: %
numeric.result: 2.57
//
compound: O=C(NNC(=O)c1ccc2c(=O)n3c(nc2c1)CCC3)c1ccc(F)cc1
quantity.unit: %
numeric.result: -18.9
//
compound: COc1ccc(N2CC(C)Cn3c2nc2c3c(=O)n(Cc3ccc(C)cc3)c(=O)n2C)c(OC)c1 (stereo not given)
quantity.unit: %
numeric.result: 17.9
//
compound: COC(=O)C1=C(C)NC(=O)CC1c1cc2c(cc1Br)OCO2 (stereo not given)
quantity.unit: %
numeric.result: -0.49
//
compound: CCOc1ccc(N(C(=O)c2ccc(S(=O)(=O)N3CCCC3)cc2)C2C=CS(=O)(=O)C2)cc1 (stereo not given)
quantity.unit: %
numeric.result: 2.41
//
compound: O=C(N/N=C1\CCCc2c1[nH]c1ccc([N+](=O)[O-])cc21)c1ccncc1
quantity.unit: %
numeric.result: -12.5
//
compound: CC(=O)Oc1ccc(/C=N/NC(=O)CCSc2ccccc2)cc1
quantity.unit: %
numeric.result: 9.49
//
compound: CC(=O)Nc1cccc(OCC(=O)Nc2ccccc2)c1
quantity.unit: %
numeric.result: -8.67
//
compound: Cc1nc(Cl)c(S(N)(=O)=O)c(C)c1Cl
quantity.unit: %
numeric.result: -6.51
//
compound: COC(=O)COc1cccc(NC(=O)C(c2ccccc2)c2ccccc2)c1
quantity.unit: %
numeric.result: 3.23
//
compound: O=c1oc2ccccc2c(Nc2ccc(O)cc2)c1[N+](=O)[O-]
quantity.unit: %
numeric.result: 35.3
//
compound: O=C(C1CCC1)N1CCc2cc(S(=O)(=O)NCCCN3CCCCC3)ccc21
quantity.unit: %
numeric.result: -2.13
//
compound: O=C(c1ccco1)N1N=C(c2ccc(Cl)cc2)CC1(O)C(F)(F)F (stereo not given)
quantity.unit: %
numeric.result: 58
//
compound: O=C(Nc1ccc(F)cc1)c1ccc2c(=O)n3c(nc2c1)CCCCC3
quantity.unit: %
numeric.result: 21.9
//
compound: CCOc1ccc(NC(=O)c2ccc3c(=O)n4c(nc3c2)CCCCC4)cc1
quantity.unit: %
numeric.result: 20.7
//
compound: O=C(CC1CCCC1)Nc1cc(C(F)(F)F)ccc1-n1cncn1
quantity.unit: %
numeric.result: 12.3

Cited source for all entries: PubChem BioAssay AID488890
